{"columns": ["Compound", "melting point"],
 "data": [
  ["CCn1c(=O)n(CC)c2cc3c(N4CCN(C(=O)Nc5ccc(Oc6ccccc6)cc5)CC4)nncc3cc21 [Compound 419]", "125 to 128 °C"],
  ["COc1cc2ncnc(N3CCN(C(=O)Nc4ccc(C(=O)c5ccccc5)cc4)CC3)c2cc1OC [Compound 245]", "240 to 241 °C"],
  ["COc1cc2ncnc(N3CCN(C(=S)Nc4ccc(C(=O)NC5CCOC5=O)cc4)CC3)c2cc1OC (racemic) [Compound 92]", "174 to 178 °C"],
  ["N#Cc1ccc(NC(=O)N2CCN(c3ncnc4cc5c(cc34)OCO5)CC2)cc1 [Compound 369]", "220 to 222 °C"],
  ["COc1cc2ncnc(N3CCN(C(=S)Nc4ccc5c(c4)OCO5)CC3)c2cc1OC [Compound 68]", "207 to 211 °C"],
  ["COc1cc2ncnc(N3CCN(C(=O)Nc4ccccc4Cl)CC3)c2cc1OC [Compound 38]", "186 to 187 °C"],
  ["CC(C)c1ccc(NC(=O)N2CCN(c3ncnc4c(Cl)cc(Cl)cc34)CC2)cc1 [Compound 376]", "234 to 236 °C"],
  ["COc1cc2ncnc(N3CCN(C(=O)Nc4cccc(C(C)=O)c4)CC3)c2cc1OC [Compound 86]", "241 to 245 °C"]
]}
